Reference for the values: PubChem BioAssay

test: LAP4-GFP expression modulators in yeast, confirmation, cell-based, cherry picks, flow cytometry, mother/daughter gates (AID 2271);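 note: ratio of sample to DMSO plate mean so 100% equals DMSO level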; conditions: S. cerevisiae LAP4-GFP strain, 3 h, measured here: mother cell gate response, at 10 µM, stronger effect = higher value, 100 means same as DMSO control
measurement-type: GFP response relative to DMSO (%)
Answers are plain numbers, in %.

CN(C)c1ccc(N=Cc2nc(-c3ccccc3)oc2OC(=O)c2ccccc2)cc1 = 105
CCn1c(=O)c(C(C)=O)c(O)c2ccccc21 = 91
CCCc1[nH]nc2c1C(c1ccccc1OC)C(C#N)=C(N)O2 (stereo not given) = 100
Cc1oc2c(CN3CCCC(C)C3)c(O)ccc2c(=O)c1-c1ccccc1 (stereo not given) = 141
CC(C)c1nc2ccccn2c1NC1CCCCC1 = 98.3

List GFP response relative to DMSO for every entry below, keeping the order given.
1. CS(=O)(=O)N1CCc2cc(C(=O)Nc3ccc(COCC(F)(F)F)cc3)ccc21
2. Cc1nc(Sc2ccccc2)c(C#N)c(C)c1[N+](=O)[O-]
3. COc1cc(/C=C2\N=C(c3ccccc3)OC2=O)ccc1OC(C)=O

[93.1, 91.9, 102]

List GFP response relative to DMSO for every entry below, keeping the order given.
1. C(=N\Nc1nc(-c2cccnc2)nc2ccccc12)/c1ccccc1
2. O=C(Nc1nccs1)C1CCCN1S(=O)(=O)c1ccc(F)cc1 (stereo not given)
3. CC(=O)Nc1ccc(NC(=O)CSc2ncc(C(=O)Nc3ccccc3)c(=O)n2C)cc1
4. CCCCC(=O)NNC(=S)NC(=O)c1ccc(C)cc1
5. CC1CN(c2nc3ccccn3c(=O)c2/C=C(\C#N)C(=O)N2CCOCC2)CC(C)O1 (stereo not given)
6. COCCNc1c(-c2ccc(O)cc2)nc2ccc(Cl)cn12
7. CCn1c(=O)c(C(=O)Nc2ccsc2C(=O)OC)c(O)c2ccccc21
8. Cc1cc(C)nc(S/C=C/C(=O)c2ccccc2)n1

98.3
95.2
97.3
233
104
98.3
94.1
191
